Answer each item with its documented INH.
Species on record: Homo sapiens
Assay: Inhibition of human recombinant S100P/RAGE interaction incubated for 1 hr and measured by ELISA based binding assay
Numbers only, in nM.

// below: answered molecules
| molecule | reportedMeasurement |
| --- | --- |
| O=C1C2C3c4ccccc4C(c4ccccc43)C2C(=O)N1c1cccc(F)c1 (stereo unspecified) | 10 |
| O=C1C2C3c4ccccc4C(c4ccccc43)C2C(=O)N1c1ccc(F)cc1 (stereo unspecified) | 10 |
| O=C1C2C3c4ccccc4C([N+](=O)[O-])(c4ccccc43)C2C(=O)N1c1cccc(F)c1 (stereo unspecified) | 100 |
| O=C(O)c1cccc(N2C(=O)C3C4c5ccccc5C([N+](=O)[O-])(c5ccccc54)C3C2=O)c1 (stereo unspecified) | 10 |

Next item in the queue.
Qu. Name the recorded INH for O=C1C2C3c4ccccc4C(c4ccccc43)C2C(=O)N1c1ccccc1 (stereo unspecified) .
Ans. 10

* * *

Tested on: PANC-1
Assay: Cytotoxicity against human PANC-1 cells assessed as LDH release at 10 uM measured after 24 hrs by LDH assay
Type: functional, cell-based
Active and inactive are the calls of the source. No cut-off for these calls is given here.
measurementLabel: Activity

| compound | target | Activity |
| --- | --- | --- |
| O=C1C2C3c4ccccc4C(c4ccccc43)C2C(=O)N1c1ccc(F)cc1 (stereo unspecified) | PANC-1 | inactive |
| COc1ccc(/C=C2/C(=O)NC(=O)N(c3ccc(Cl)c(Cl)c3)C2=O)cc1C(=O)O | PANC-1 | inactive |
| O=C(O)c1cccc(N2C(=O)C3C4c5ccccc5C([N+](=O)[O-])(c5ccccc54)C3C2=O)c1 (stereo unspecified) | PANC-1 | inactive |
| O=C1C2C3c4ccccc4C(c4ccccc43)C2C(=O)N1c1ccccc1 (stereo unspecified) | PANC-1 | inactive |
| O=C(O)c1ccc(N2C(=O)C3C4c5ccccc5C([N+](=O)[O-])(c5ccccc54)C3C2=O)cc1 (stereo unspecified) | PANC-1 | inactive |
| O=C1C2C3c4ccccc4C([N+](=O)[O-])(c4ccccc43)C2C(=O)N1c1cccc(F)c1 (stereo unspecified) | PANC-1 | inactive |
| O=C(O)c1cc(=O)c2c(OCC(O)COc3cccc4oc(C(=O)O)cc(=O)c34)cccc2o1 | PANC-1 | inactive |
| O=C1C2C3c4ccccc4C(c4ccccc43)C2C(=O)N1c1cccc(F)c1 (stereo unspecified) | PANC-1 | inactive |

Go through the list and state Activity for each entry.
1. N#CCCn1cc(C(=O)Nc2ccc(C(=O)O)cc2)c(-c2ccccc2)n1
2. O=C(Cc1cc(O)n[nH]1)N/N=C/c1c(Cl)cccc1Cl
3. Cc1ccc(-c2ccc(=O)n(CC(=O)Nc3ccc(-n4cnnn4)cc3)n2)cc1

Ans.
1: inactive; 2: inactive; 3: inactive
